Ref: patent US7074789B2

# target: IGFR-1 (Homo sapiens, UniProt P08069)
# Construct: Kinases are expressed as either kinase domains or full length constructs; made in house
# Sequence (P08069 31-1367): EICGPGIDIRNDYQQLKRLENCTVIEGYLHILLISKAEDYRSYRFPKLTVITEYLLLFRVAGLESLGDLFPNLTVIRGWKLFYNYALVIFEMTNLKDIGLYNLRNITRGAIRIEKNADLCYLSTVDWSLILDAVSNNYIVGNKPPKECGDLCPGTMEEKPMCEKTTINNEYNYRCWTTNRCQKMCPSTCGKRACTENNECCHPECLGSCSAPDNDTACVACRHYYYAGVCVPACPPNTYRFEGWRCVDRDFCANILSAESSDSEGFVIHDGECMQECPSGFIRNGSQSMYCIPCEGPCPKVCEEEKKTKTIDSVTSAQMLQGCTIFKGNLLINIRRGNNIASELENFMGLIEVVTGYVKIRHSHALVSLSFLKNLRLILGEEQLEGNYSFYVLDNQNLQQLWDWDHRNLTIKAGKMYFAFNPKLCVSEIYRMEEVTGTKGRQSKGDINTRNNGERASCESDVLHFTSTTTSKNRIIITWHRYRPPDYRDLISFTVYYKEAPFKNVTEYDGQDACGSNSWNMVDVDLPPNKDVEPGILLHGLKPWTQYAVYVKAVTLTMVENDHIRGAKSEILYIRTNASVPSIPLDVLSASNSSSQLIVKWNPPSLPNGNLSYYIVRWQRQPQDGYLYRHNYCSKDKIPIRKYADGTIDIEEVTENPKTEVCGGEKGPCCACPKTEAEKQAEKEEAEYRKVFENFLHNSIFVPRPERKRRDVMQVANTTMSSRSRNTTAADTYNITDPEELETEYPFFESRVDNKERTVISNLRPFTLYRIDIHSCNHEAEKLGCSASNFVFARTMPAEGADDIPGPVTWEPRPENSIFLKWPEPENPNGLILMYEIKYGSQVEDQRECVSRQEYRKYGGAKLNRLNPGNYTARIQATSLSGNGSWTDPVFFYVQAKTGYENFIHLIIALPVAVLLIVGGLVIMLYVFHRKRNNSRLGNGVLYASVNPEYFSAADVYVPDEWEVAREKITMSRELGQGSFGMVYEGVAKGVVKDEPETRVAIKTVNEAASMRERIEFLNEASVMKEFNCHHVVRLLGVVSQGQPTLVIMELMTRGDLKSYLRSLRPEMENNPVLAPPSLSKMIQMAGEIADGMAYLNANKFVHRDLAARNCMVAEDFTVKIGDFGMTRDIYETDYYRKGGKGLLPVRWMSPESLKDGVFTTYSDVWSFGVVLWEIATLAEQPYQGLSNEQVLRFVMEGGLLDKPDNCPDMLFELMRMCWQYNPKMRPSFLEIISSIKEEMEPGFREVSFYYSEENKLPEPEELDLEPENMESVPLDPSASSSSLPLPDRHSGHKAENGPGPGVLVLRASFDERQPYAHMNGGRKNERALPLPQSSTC
# measurement-description: Kinase inhibition assay (33P transfer), IGFR-1
# Format: biochemical
# measurement-context: Table 2, class symbols A-E
reported-metric: IC50

Reported IC50 for IGFR-1 (Homo sapiens, UniProt P08069), given COc1cc(Nc2ncnc(-c3cccnc3NCc3ccccc3OC(F)(F)F)n2)cc(OC)c1OC ?
> 8.51 µM

Reported IC50 for IGFR-1 (Homo sapiens, UniProt P08069), given COC(=O)c1cccc(Nc2ncnc(-n3c(NCc4ccc(OC)cc4)nc4ccccc43)n2)c1 ?
> 9.35 µM

Reported IC50 for IGFR-1 (Homo sapiens, UniProt P08069), given COc1cc(Nc2ncnc(-c3cccnc3N[C@@H](C)c3ccccc3)n2)cc(OC)c1OC ?
> 9.81 µM

----------
# target: PDGFRB (Homo sapiens)
# Construct: Kinases are expressed as either kinase domains or full length constructs; made in house
# Sequence (P09619 33-1106, species assumed): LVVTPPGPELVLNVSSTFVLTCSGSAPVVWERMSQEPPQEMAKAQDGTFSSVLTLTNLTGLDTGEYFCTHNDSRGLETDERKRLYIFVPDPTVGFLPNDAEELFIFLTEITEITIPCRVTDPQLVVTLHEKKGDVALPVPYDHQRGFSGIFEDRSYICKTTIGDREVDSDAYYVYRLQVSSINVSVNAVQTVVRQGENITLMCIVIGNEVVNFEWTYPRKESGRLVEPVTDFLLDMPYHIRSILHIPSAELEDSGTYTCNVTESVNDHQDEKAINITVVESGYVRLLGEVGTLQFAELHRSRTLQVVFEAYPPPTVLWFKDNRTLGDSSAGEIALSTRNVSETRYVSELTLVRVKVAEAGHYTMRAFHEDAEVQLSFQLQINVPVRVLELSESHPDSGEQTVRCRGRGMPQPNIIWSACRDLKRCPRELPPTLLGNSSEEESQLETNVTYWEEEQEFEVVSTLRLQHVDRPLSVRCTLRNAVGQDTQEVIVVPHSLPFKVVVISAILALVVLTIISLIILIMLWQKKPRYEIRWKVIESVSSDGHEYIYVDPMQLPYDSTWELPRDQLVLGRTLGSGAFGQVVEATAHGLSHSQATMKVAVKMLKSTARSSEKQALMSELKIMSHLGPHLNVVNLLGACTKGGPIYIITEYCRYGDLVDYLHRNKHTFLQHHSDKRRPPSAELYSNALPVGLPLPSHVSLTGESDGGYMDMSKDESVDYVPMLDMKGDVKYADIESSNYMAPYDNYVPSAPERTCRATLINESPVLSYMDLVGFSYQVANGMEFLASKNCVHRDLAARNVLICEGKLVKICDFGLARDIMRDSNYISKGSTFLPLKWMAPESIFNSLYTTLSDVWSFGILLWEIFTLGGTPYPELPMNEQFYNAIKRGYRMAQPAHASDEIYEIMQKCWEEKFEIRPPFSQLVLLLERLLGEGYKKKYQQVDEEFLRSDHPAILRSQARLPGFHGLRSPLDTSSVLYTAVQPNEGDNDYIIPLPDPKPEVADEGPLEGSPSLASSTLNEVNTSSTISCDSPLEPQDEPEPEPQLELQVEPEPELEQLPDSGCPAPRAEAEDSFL
# measurement-description: Kinase inhibition assay (33P transfer), PDGFRB
# Format: biochemical
# measurement-context: read-out: PDGFRB-1
reported-metric: IC50

# count of solved cases: 5
compound="Cc1ccc2c(c1)CCCN2c1ncnc(NCCc2c[nH]c3ccccc23)n1 [Compound 768]" reported_metric=IC50 recorded_result="> 11.7 µM"
compound="COc1cc(Nc2ncnc(Nc3ccc4nn(Cc5ccccc5)cc4c3)n2)cc(OC)c1OC [Compound 555]" reported_metric=IC50 recorded_result="0.827 to 4.96 µM"
compound="COc1cc(Nc2ncnc(NCc3ccccc3)n2)cc(OC)c1OC [Compound 630]" reported_metric=IC50 recorded_result="1.09 to 6.53 µM"
compound="COc1cc(Nc2ncnc(Nc3cc(Cl)c(NC(=O)c4ccccc4)cc3C)n2)cc(OC)c1OC [Compound 633]" reported_metric=IC50 recorded_result="4.61 to 6.72 µM"
compound="Cc1ccc2c(c1)CCCN2c1ncnc(Nc2cccc(CO)c2)n1 [Compound 770]" reported_metric=IC50 recorded_result="< 1.15 µM"

// lookup IC50 for COc1ccc(CNc2nc3ccccc3n2-c2ncnc(Nc3cccc(CC(=O)O)c3)n2)cc1 [Compound 534]
0.831 to 4.98 µM

// lookup IC50 for CC(C)(C)c1cc(Nc2ncnc(Nc3cccc(Cl)c3)n2)[nH]n1 [Compound 1007]
> 13.1 µM

// lookup IC50 for CN(c1cccc(Cl)c1)c1ncnc(NC2CCN(Cc3ccccc3)CC2)n1 [Compound 752]
> 11 µM

// lookup IC50 for COC(=O)c1ccc(-c2cc(Nc3ncnc(NCCc4c[nH]c5ccccc45)n3)[nH]n2)cc1 [Compound 806]
> 9.9 µM

// lookup IC50 for COc1cc(Nc2ncnc(-c3cccnc3Nc3cccc(C(C)=O)c3)n2)cc(OC)c1OC [Compound 831]
< 0.847 µM

// lookup IC50 for CN1CCN(Cc2cccc(Nc3ncnc(Nc4cccc5ccccc45)n3)c2)CC1 [Compound 551]
> 10.6 µM

// lookup IC50 for CN(c1cccc(Cl)c1)c1ncnc(Nc2cccc(CC(=O)O)c2)n1 [Compound 706]
6.49 to 9.46 µM

// lookup IC50 for Fc1ccc(CNc2ncccc2-c2ncnc(Nc3ccc(N4CCOCC4)cc3)n2)cc1 [Compound 1106]
0.874 to 5.25 µM

// lookup IC50 for CN(c1cccc(Cl)c1)c1ncnc(Nc2cccc(Br)c2)n1 [Compound 707]
> 11.5 µM

// lookup IC50 for COc1cccc(Nc2ncnc(Nc3cc(-c4ccccc4)n[nH]3)n2)c1 [Compound 1011]
1.11 to 6.68 µM

// lookup IC50 for COc1cc(Nc2ncnc(N[C@H]3CCCc4ccccc43)n2)cc(OC)c1OC [Compound 619]
> 11 µM

// lookup IC50 for COc1cc(CNc2ncnc(N(C)c3cccc(Cl)c3)n2)cc(OC)c1OC [Compound 747]
> 10.8 µM
